- Protocol Summary: Hemolytic activity
- Type: cell-based
- Condition Parameters: healthy human erythrocytes, 5 % (v/v) suspension, 200 μM
# if value of hemolysis at 1 h, 200 µM reaches 0.4%, tag t; if it stays below, tag f

Smi | Assigned Label
O=C(O)c1cccc(-c2ccc(C=C3SC(=Nc4ccc(Cl)cc4)N(c4ccc(Cl)cc4)C3=O)o2)c1 | f
O=C(O)c1ccc(-c2ccc(/C=C3\S/C(=N\c4ccccc4)N(c4ccc(Cl)cc4)C3=O)o2)cc1 | f
CCc1ccccc1/N=C1\S/C(=C\c2ccc(OCC(=O)O)c(OC)c2)C(=O)N1c1ccccc1CC | t
O=C(O)c1ccc(-c2ccc(/C=C3\S/C(=N\c4ccccc4)N(c4ccc(F)cc4)C3=O)s2)cc1 | f
O=C(O)COc1ccc(C=C2SC(=Nc3ccc(Cl)cc3)N(c3ccc(Cl)cc3)C2=O)cc1 | t
O=C(O)c1ccc(-c2ccc(C=C3SC(=Nc4ccc(F)cc4)N(c4ccc(F)cc4)C3=O)s2)cc1 | t

---

# MIC measurements, system: S. epidermidis ATCC 12228

Smi | MIC
O=C(O)c1ccc(-c2ccc(/C=C3\S/C(=N\c4ccccc4)N(c4ccc(F)cc4)C3=O)s2)cc1 | 1.5 µM
O=C(O)c1ccc(-c2ccc(/C=C3\S/C(=N\c4ccccc4)N(c4ccc(Cl)cc4)C3=O)o2)cc1 | 3.1 µM
O=C(O)c1ccc(-c2ccc(C=C3SC(=Nc4ccc(F)cc4)N(c4ccc(F)cc4)C3=O)s2)cc1 | 1.5 µM
O=C(O)c1ccc(-c2ccc(C=C3SC(=Nc4ccc(Cl)cc4)N(c4ccc(Cl)cc4)C3=O)o2)cc1 | 1.5 µM
CCc1ccccc1/N=C1\S/C(=C\c2ccc(OCC(=O)O)c(OC)c2)C(=O)N1c1ccccc1CC | 25 µM
O=C(O)COc1ccc(C=C2SC(=Nc3ccc(Cl)cc3)N(c3ccc(Cl)cc3)C2=O)cc1 | 1.5 µM
O=C(O)c1cccc(-c2ccc(C=C3SC(=Nc4ccc(Cl)cc4)N(c4ccc(Cl)cc4)C3=O)o2)c1 | 1.5 µM

---

- Tested on: S. epidermidis ATCC 35984
- Protocol Summary: Derivatives combined with vancomycin or cefazolin (FIC index)
- Format: cell-based
- Condition Parameters: derivative combined with cefazolin
Property: MIC In combination: derivative (µg/mL)

Smi | Observed Result
O=C(O)c1ccc(-c2ccc(/C=C3\S/C(=N\c4ccccc4)N(c4ccc(Cl)cc4)C3=O)o2)cc1 | 0.85
O=C(O)c1ccc(-c2ccc(C=C3SC(=Nc4ccc(F)cc4)N(c4ccc(F)cc4)C3=O)s2)cc1 | 0.85
O=C(O)COc1ccc(C=C2SC(=Nc3ccc(Cl)cc3)N(c3ccc(Cl)cc3)C2=O)cc1 | 0.4
O=C(O)c1cccc(-c2ccc(C=C3SC(=Nc4ccc(Cl)cc4)N(c4ccc(Cl)cc4)C3=O)o2)c1 | 0.4
O=C(O)c1ccc(-c2ccc(/C=C3\S/C(=N\c4ccccc4)N(c4ccc(F)cc4)C3=O)s2)cc1 | 0.18
O=C(O)c1ccc(-c2ccc(C=C3SC(=Nc4ccc(Cl)cc4)N(c4ccc(Cl)cc4)C3=O)o2)cc1 | 0.4

---

- Assayed Target: recombinant YycG′ (Staphylococcus epidermidis, UniProt Q5HK19)
- Sequence (Q5HK19 370-610): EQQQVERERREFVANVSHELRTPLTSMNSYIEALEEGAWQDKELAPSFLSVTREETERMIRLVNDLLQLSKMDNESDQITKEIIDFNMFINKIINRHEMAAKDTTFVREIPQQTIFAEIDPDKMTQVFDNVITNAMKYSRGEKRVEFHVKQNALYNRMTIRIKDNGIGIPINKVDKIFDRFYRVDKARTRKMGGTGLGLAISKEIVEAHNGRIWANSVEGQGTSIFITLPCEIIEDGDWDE
- Protocol Summary: Inhibition of YycG′ autophosphorylation (Kinase-Glo Luminescent Kinase Assay)
- Condition Parameters: autophosphorylation of recombinant YycG′, Kinase-Glo
Property: IC50 (µM)

Smi | Measurement Units | Observed Result
O=C(O)c1ccc(-c2ccc(C=C3SC(=Nc4ccc(F)cc4)N(c4ccc(F)cc4)C3=O)s2)cc1 | µM | 63.7
O=C(O)c1ccc(-c2ccc(C=C3SC(=Nc4ccc(Cl)cc4)N(c4ccc(Cl)cc4)C3=O)o2)cc1 | µM | 59.8
O=C(O)c1ccc(-c2ccc(/C=C3\S/C(=N\c4ccccc4)N(c4ccc(F)cc4)C3=O)s2)cc1 | µM | 24.2
O=C(O)c1ccc(-c2ccc(/C=C3\S/C(=N\c4ccccc4)N(c4ccc(Cl)cc4)C3=O)o2)cc1 | µM | 47.1
O=C(O)COc1ccc(C=C2SC(=Nc3ccc(Cl)cc3)N(c3ccc(Cl)cc3)C2=O)cc1 | µM | 71.2
O=C(O)c1cccc(-c2ccc(C=C3SC(=Nc4ccc(Cl)cc4)N(c4ccc(Cl)cc4)C3=O)o2)c1 | µM | 41.4
CCc1ccccc1/N=C1\S/C(=C\c2ccc(OCC(=O)O)c(OC)c2)C(=O)N1c1ccccc1CC | µM | 47.9
